# System: generalized trembling caused by an interperitoneal injection (200 mg/kg) of dl-5-hydroxytryptophane
# experiment.description: Test A: potentiation in mice of generalized trembling caused by dl-5-hydroxytryptophane
# Type: in vivo
# test.conditions: Mus musculus, po, dl-5-hydroxytryptophane 200 mg/kg intraperitoneal, read-out: Test A ED 50
This section presents compounds with their documented ED50 values.
endpoint.name: ED50 (mg/kg)

>>> df
                                   compound  obs_value
0  O=C1OC(CO)CN1c1ccc(OCc2cnccn2)cc1 (centres unmarked) [770 845]       6.25
1  O=C1OC(CO)CN1c1ccc(OCCN2CCOCC2)cc1 (centres unmarked) [750 601]         70
2  O=C1OC(CO)CN1c1ccc(OCC2OCCO2)cc1 (centres unmarked) [770 962]         26
3  CC(COc1ccc(N2CC(CO)OC2=O)cc1)=NO (centres unmarked) [770 126]          8
4  O=C1OC(CO)CN1c1ccc(C(F)(F)F)cc1 (centres unmarked) [770 152]         20

###

# experiment.description: Acute toxicity in mice
# test.conditions: mouse, in vivo, po, 2000 mg/kg
endpoint.name: mortality (%)

In [3]: df
Out[3]:
                                   molecule  endpoint_name  obs_value
0  O=C1OC(CO)CN1c1ccc(OCc2ccc(F)c([N+](=O)[O-])c2)cc1 (stereo not shown)      mortality         17

###

# System: generalized trembling caused by an interperitoneal injection (200 mg/kg) of dl-5-hydroxytryptophane
# experiment.description: Test A: potentiation in mice of generalized trembling caused by dl-5-hydroxytryptophane
# Assay type: in vivo
# test.conditions: Mus musculus, po, dl-5-hydroxytryptophane 200 mg/kg intraperitoneal, read-out: Test A ED 50
endpoint.name: log10 of ED50 (log10 of the value in mg/kg)

>>> df
                                   compound  obs_value
0  O=C1OC(CO)CN1c1ccc(OCc2ccccn2)cc1 (stereo not drawn)       1.74
1  CCCCCSc1ccc(N2CC(CO)OC2=O)cc1 (stereo not drawn)       1.54
2  O=C1OC(CO)CN1c1ccc(OCc2ccsc2)cc1 (stereo not drawn)       0.88
3  CC(C)C(=O)COc1ccc(N2CC(CO)OC2=O)cc1 (stereo not drawn)       1.70
4  CC(=O)CSc1ccc(N2CC(CO)OC2=O)cc1 (stereo not drawn)       1.34
5  O=C1OC(CO)CN1c1ccc(OCC2CCCCCC2)cc1 (stereo not drawn)       0.48

###

# System: pontogeniculo-occipital points (P.G.O.) caused by an intravenous injection (0.5 mg/kg) of reserpine
# experiment.description: Test C: reduction in the density of pontogeniculo-occipital points (P.G.O.) caused by reserpine in cats
# Type: in vivo
# test.conditions: Felis catus, ip, reserpine 0.5 mg/kg intravenous, read-out: Test C ED 50
endpoint.name: ED50 (mg/kg)

In [3]: df
Out[3]:
                                    compound  endpoint_name  unit_abbrev  obs_value
 0  N#Cc1cccc(COc2ccc(N3CC(CO)OC3=O)cc2)c1 (stereo not shown)           ED50        mg/kg        5.2
 1  CN(C)c1cccc(N2CC(CO)OC2=O)c1 (stereo not shown)           ED50        mg/kg         35
 2  O=C1OC(CO)CN1c1ccc(OCc2cccc([N+](=O)[O-])c2)cc1 (stereo not shown)           ED50        mg/kg          9
 3  O=C1OC(CO)CN1c1ccc(OCc2ccc(Cl)cc2Cl)cc1 (stereo not shown)           ED50        mg/kg         30
 4  CC(=O)COc1cccc(N2CC(CO)OC2=O)c1 (stereo not shown)           ED50        mg/kg         16
 5  O=C1OC(CO)CN1c1ccc(OCC2CCCC2)cc1 (stereo not shown)           ED50        mg/kg          3
 6  Cc1cccc(N2CC(CO)OC2=O)c1 (stereo not shown) [TOLOXATONE, reference compound]           ED50        mg/kg         28
 7  N#CCCOc1ccc(N2CC(CO)OC2=O)cc1 (stereo not shown)           ED50        mg/kg        5.5
 8  O=C1OC(CO)CN1c1ccc(OCC2CC2)cc1 (stereo not shown)           ED50        mg/kg        4.5
 9  CC(COc1ccc(N2CC(CO)OC2=O)cc1)=NO (stereo not shown)           ED50        mg/kg       16.5
10  CC(C)C(=O)COc1ccc(N2CC(CO)OC2=O)cc1 (stereo not shown)           ED50        mg/kg         20
11  CCCC(=O)c1ccc(N2CC(CO)OC2=O)cc1 (stereo not shown)           ED50        mg/kg          5
12  O=C1OC(CO)CN1c1ccc(OCc2cccnc2)cc1 (stereo not shown)           ED50        mg/kg         15
13  COCOc1ccc(N2CC(CO)OC2=O)cc1 (stereo not shown)           ED50        mg/kg        8.5
14  O=C1OC(CO)CN1c1ccc(OCc2cccs2)cc1 (stereo not shown)           ED50        mg/kg          8
15  CC(=O)Nc1ccc(COc2ccc(N3CC(CO)OC3=O)cc2)cc1 (stereo not shown)           ED50        mg/kg          6
16  O=C1OC(CO)CN1c1ccc(OCc2cc(Cl)cc(Cl)c2)cc1 (stereo not shown)           ED50        mg/kg          3
17  O=C1OC(CO)CN1c1ccc(OCC2=CCCC2)cc1 (stereo not shown)           ED50        mg/kg          9
18  O=C1OC(CO)CN1c1ccc(OCCN2CCOCC2)cc1 (stereo not shown)           ED50        mg/kg         31
19  O=C1OC(CO)CN1c1ccc(OCc2ccc(F)c(Cl)c2)cc1 (stereo not shown)           ED50        mg/kg        8.5
20  CCCCCSc1ccc(N2CC(CO)OC2=O)cc1 (stereo not shown)           ED50        mg/kg         45
21  N#CCOc1cccc(N2CC(CO)OC2=O)c1 (stereo not shown)           ED50        mg/kg         14

###

# experiment.description: Acute toxicity in mice
# test.conditions: mouse, in vivo, po
endpoint.name: LD50

>>> df
                                   compound  endpoint_name     obs_value
0  O=C1OC(CO)CN1c1ccc(OCCC2CCCC2)cc1 (stereo not drawn)           LD50  > 2000 mg/kg
1  O=C1OC(CO)CN1c1ccc(OCC2CCOCC2)cc1 (stereo not drawn)           LD50  > 2000 mg/kg
2  CC(C)CCOc1ccc(N2CC(CO)OC2=O)cc1 (stereo not drawn)           LD50  > 2000 mg/kg

###

# experiment.description: Acute toxicity in mice
# test.conditions: mouse, in vivo, po; mice, dose administered 1000 mg/kg/p.o.
endpoint.name: mortality (%)

                                   compound  endpoint_name  obs_value
0  CC(=O)COc1ccc(N2CC(CO)OC2=O)cc1 (stereo not shown)      mortality          0

###

The compounds listed here are annotated with their ED50.
# Test system: generalized trembling caused by an interperitoneal injection (200 mg/kg) of dl-5-hydroxytryptophane
# experiment.description: Test A: potentiation in mice of generalized trembling caused by dl-5-hydroxytryptophane
# Type: in vivo
# test.conditions: Mus musculus, po, dl-5-hydroxytryptophane 200 mg/kg intraperitoneal, read-out: Test A ED 50
endpoint.name: ED50

>>> print(df.to_string())
                                   compound  obs_value
0  O=C1OC(CO)CN1c1ccc(OCC2SCCCS2)cc1 (stereo not shown) [780 077]   25 mg/kg
1  CC(C)(C)CCOc1ccc(N2CC(CO)OC2=O)cc1 (stereo not shown) [771 246]   17 mg/kg
2  O=C1OC(CO)CN1c1ccc(OCc2cc(Cl)cc(Cl)c2)cc1 (stereo not shown) [770 416]  6.2 mg/kg
3  O=C1OC(CO)CN1c1ccc(OCc2ccc(F)c(Cl)c2)cc1 (stereo not shown) [770 572]  6.3 mg/kg
